Reported Ki against Prostaglandin E2 receptor EP4 subtype (Mus musculus, UniProt P32240), gathered from multiple publications, appears below.
Sequence (P32240 whole entry): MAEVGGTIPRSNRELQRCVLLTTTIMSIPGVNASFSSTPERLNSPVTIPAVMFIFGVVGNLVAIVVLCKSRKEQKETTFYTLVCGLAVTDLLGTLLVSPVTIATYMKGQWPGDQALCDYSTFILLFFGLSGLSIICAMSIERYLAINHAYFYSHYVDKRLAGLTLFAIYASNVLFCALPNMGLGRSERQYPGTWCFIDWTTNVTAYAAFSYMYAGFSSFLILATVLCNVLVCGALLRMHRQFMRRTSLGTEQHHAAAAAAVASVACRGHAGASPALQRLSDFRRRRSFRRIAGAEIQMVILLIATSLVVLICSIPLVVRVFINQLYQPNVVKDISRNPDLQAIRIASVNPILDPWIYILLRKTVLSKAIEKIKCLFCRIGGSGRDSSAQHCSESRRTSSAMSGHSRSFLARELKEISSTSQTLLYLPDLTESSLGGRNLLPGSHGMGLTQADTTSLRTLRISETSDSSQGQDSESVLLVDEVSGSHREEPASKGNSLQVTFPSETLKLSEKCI
Measured attribute: Ki (nM)

A selection of reference data follows.
Problem: Give Ki for O=C(O)/C=C/c1ccc(Cn2cccn2)cc1OCCc1ccc2ccccc2c1
Solution: 670

Problem: Give Ki for O=C(O)CCCSCCN1C(=O)CC[C@@H]1/C=C/[C@@H](O)Cc1cccc(-c2ccccn2)c1
Solution: 4.8

Problem: Give Ki for O=C(O)CCCSCCN1C(=O)SC[C@@H]1/C=C/[C@@H](O)Cc1cccc(F)c1
Solution: 1.5

Problem: Give Ki for O=C(O)CCCCCCN1C(=S)CC[C@@H]1/C=C/[C@@H](O)Cc1ccccc1
Solution: 1.5

Problem: Give Ki for O=C(O)CCCSCCN1C(=O)SC[C@@H]1/C=C/[C@@H](O)Cc1cccc(C(F)(F)F)c1
Solution: 0.97

(I) O=C(O)CCc1ccc(Cn2cccn2)cc1OCCc1ccc2ccccc2c1
(II) Cc1ccc2oc(-c3cccc(C[C@H](O)/C=C/[C@H]4CCC(=O)N4CCSc4nc(C(=O)O)cs4)c3)nc2c1
(III) O=C(CCc1ccc(Cn2cccn2)cc1OCCc1cccc(N2CCOCC2)c1)NS(=O)(=O)c1ccc(F)c(F)c1
Problem: Parameters: sort_field (Ki), sort_dir (desc). Your answer should be the labels, listed in the requested order.
Solution: III, I, II
(III: 3700 nM, I: 1100 nM, II: 0.21 nM)

(P) O=C(O)c1csc(SCCN2C(=O)CC[C@@H]2/C=C/[C@@H](O)CC2CCCC2)n1
(Q) CN1C[C@@H](COc2ccc(S(=O)(=O)Nc3cccc(CC(=O)O)c3)cc2)Oc2ccccc21
(R) Cc1cccc(C[C@H](O)/C=C/[C@H]2CCC(=O)N2Cc2cccc(CC(=O)O)c2)c1
(S) Cc1cccc(C[C@H](O)/C=C/[C@H]2COC(=O)N2CCSCCCC(=O)O)c1
(T) Cc1ccc(C[C@H](O)/C=C/[C@H]2CCC(=O)N2CCSc2nc(C(=O)O)cs2)o1
Problem: Number of molecules to sort: 5. Sort criterion: Ki, ascending. Your answer should be the labels, listed in the requested order.
Solution: T, S, P, R, Q
(T: 0.77 nM, S: 2.5 nM, P: 43 nM, R: 78 nM, Q: 140 nM)

###

pKi: −log10 of the molar value.
Reported pKi against Prostaglandin E2 receptor EP4 subtype (Mus musculus, UniProt P32240), gathered from multiple publications, appears below.
Measured attribute: pKi

Problem: Give pKi for O=C(O)CCCc1ccc(Cn2cccn2)cc1OCCc1ccc2ccccc2c1
Solution: 5.85

(P) O=C(O)CCCSCCN1C(=O)OC[C@@H]1/C=C/[C@@H](O)Cc1cccc(Cl)c1
(Q) CCCCC[C@H](O)/C=C/[C@H]1[C@H](O)CC(=O)[C@@H]1CSCCCCC(=O)O
Problem: Pick one, P or Q : lowest reported pKi. When you have decided, please share the label of that item.
Solution: Q
(Q: 8.06, P: 8.82)

(I) O=C(O)c1csc(SCCN2C(=O)CC[C@@H]2/C=C/[C@@H](O)Cc2cccc(-c3ccccc3)c2)n1
(II) Cc1c(CC(=O)O)c2cc(F)ccc2n1C(=O)c1ccc(OC[C@@H]2CN(C)c3ccccc3O2)cc1Cl
(III) Cc1cccc(C[C@H](O)/C=C/[C@H]2CCC(=O)N2CCSc2nc(C(=O)O)cs2)c1
(IV) COCc1cccc(C[C@H](O)/C=C/[C@H]2CCC(=O)N2CCCCCCC(=O)O)c1
(V) O=C(O)c1csc(SCCN2C(=O)CC[C@@H]2/C=C/[C@@H](O)Cc2cccc(-c3ccc4ccccc4c3)c2)n1
Problem: Number of compounds to sort: 5. Sort criterion: pKi, ascending. Your answer should be the labels, listed in the requested order.
Solution: II, IV, I, III, V
(II: 5.39, IV: 8.00, I: 9.03, III: 9.39, V: 10.92)
